The measured values listed here are drawn from paper PMC11050443.

- target: TcGlcK (Trypanosoma cruzi glucokinase) (Trypanosoma cruzi)
- Construct: made in house; host or cells: Escherichia coli BL21(DE3)
- test protocol: TcGlcK primary screening assay (LmG6PDH-coupled, Dixon plots)
- Assay type: biochemical
- protocol conditions: Cornish-Bowden method, Dixon plots of [D-Glc]/V versus inhibitor concentration
assay endpoint: Mode of TcGlcK inhibition

[
  {
    "molecule": "COc1ccc(C2Oc3ccc(Br)cc3C=C2[N+](=O)[O-])cc1OC (stereo not shown)",
    "observed value": "mixed-mode inhibition"
  },
  {
    "molecule": "CCOc1ccc(C2Oc3c(Cl)cc(Cl)cc3C=C2[N+](=O)[O-])cc1OCC (stereo not shown)",
    "observed value": "mixed-mode inhibition"
  }
]

* * *

- System: T. brucei brucei (427 strain) bloodstream form
- test protocol: In vitro T. brucei biological assay (Alamar blue)
- Assay type: cell-based, Trypanosoma brucei brucei
- protocol conditions: Trypanosoma brucei, 48 h, T. brucei brucei 427 strain bloodstream form growth inhibition; N = 3
assay endpoint: IC50 (nM)
Numeric answer only, unit nM assumed.

[
  {
    "compound": "O=[N+]([O-])C1=Cc2cc(Br)cc(Br)c2OC1c1c(Cl)cccc1Cl (centres unmarked)",
    "observed value": 900
  }
]

With those in mind, consider the next compound.
Ask | Using known records, supply IC50 for O=[N+]([O-])C1=Cc2cc(Br)ccc2OC1c1ccccc1Cl (centres unmarked)
Reply | 860

* * *

- target: UniProtKB Q4E4E1
- Sequence (Q4E4E1 1-376): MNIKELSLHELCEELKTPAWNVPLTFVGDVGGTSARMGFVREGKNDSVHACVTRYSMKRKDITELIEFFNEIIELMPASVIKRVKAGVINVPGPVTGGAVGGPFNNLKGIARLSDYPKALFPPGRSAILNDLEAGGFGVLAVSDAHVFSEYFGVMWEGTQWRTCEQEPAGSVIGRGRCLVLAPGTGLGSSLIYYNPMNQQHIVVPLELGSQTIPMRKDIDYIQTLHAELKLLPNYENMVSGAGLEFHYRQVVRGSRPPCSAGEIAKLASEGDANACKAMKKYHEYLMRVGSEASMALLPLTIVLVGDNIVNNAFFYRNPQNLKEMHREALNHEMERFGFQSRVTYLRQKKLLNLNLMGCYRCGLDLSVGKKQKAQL
assay endpoint: Ki (µM)
Only the number, expressed in µM, is required.

Ask | Consider the compound CCOc1ccc(C2Oc3ccc(Br)cc3C=C2[N+](=O)[O-])cc1OC (centres unmarked) tested on UniProtKB Q4E4E1; state its Ki.
Reply | 6.2

Ask | Provide Ki, system UniProtKB Q4E4E1, entry O=[N+]([O-])C1=Cc2cc(Br)cc(Br)c2OC1c1c(Cl)cccc1Cl (centres unmarked)
Reply | 50

Ask | // fetch Ki for COc1ccc(C2Oc3ccc(Br)cc3C=C2[N+](=O)[O-])cc1OC (centres unmarked) ; system: UniProtKB Q4E4E1
Reply | 5.5

Ask | Fetch value of Ki on UniProtKB Q4E4E1 for O=[N+]([O-])C1=Cc2ccccc2OC1c1ccccc1Cl (centres unmarked) .
Reply | 14

Ask | Report value only: Ki, UniProtKB Q4E4E1, CCOc1ccc(C2Oc3c(Br)cc(Br)cc3C=C2[N+](=O)[O-])cc1OC (centres unmarked)
Reply | 6.1

Ask | State recorded Ki with UniProtKB Q4E4E1, entry CCOc1ccc(C2Oc3c(cc(Br)cc3OC)C=C2[N+](=O)[O-])cc1OC (centres unmarked) , no comment.
Reply | 30

Ask | Lab note: record Ki of CCOc1ccc(C2Oc3c(Cl)cc(Cl)cc3C=C2[N+](=O)[O-])cc1OCC (centres unmarked) tested on UniProtKB Q4E4E1.
Reply | 12.3

Ask | Report value only: Ki, UniProtKB Q4E4E1, O=[N+]([O-])C1=Cc2cc(Br)ccc2OC1c1ccccc1Cl (centres unmarked)
Reply | 20
